MEASURED ON: HIV-1 Env of isolate MGRM-AE-001 (HIV-1)
RUN DESCRIPTION: cell-based or functional assay
Exercise: state measured IC50 (µg/mL), pseudovirus neutralization for each of the binders provided.
Return type: number; implicit unit µg/mL.

Name the reported IC50 (µg/mL), pseudovirus neutralization value associated with the binder PGT-125 (antibody, V domains shown) VH: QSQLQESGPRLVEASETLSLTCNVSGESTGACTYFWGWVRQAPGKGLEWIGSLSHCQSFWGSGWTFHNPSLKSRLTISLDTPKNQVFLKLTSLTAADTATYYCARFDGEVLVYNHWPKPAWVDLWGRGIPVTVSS VL: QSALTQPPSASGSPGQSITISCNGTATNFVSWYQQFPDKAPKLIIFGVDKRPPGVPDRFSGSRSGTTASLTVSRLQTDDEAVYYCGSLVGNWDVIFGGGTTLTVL
2.95

Which IC50 (µg/mL), pseudovirus neutralization value belongs to PGT-126 (antibody, V domains shown) VH: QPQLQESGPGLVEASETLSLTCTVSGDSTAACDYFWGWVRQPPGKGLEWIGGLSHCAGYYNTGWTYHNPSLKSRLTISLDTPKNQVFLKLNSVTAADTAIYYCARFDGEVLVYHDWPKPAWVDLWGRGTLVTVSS VL: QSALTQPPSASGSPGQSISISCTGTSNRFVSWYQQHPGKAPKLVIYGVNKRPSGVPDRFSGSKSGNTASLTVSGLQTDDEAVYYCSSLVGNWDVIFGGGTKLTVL ?
9.68
